Target: T1, E. coli β clamp (β subunit of DNA polymerase III, dnaN gene product), N-tagged (E. coli, UniProt P0A988 1-366)
T1 construct: The dnaN gene was cloned in pET15b and expressed in BL21 E. coli; also called β ring; β protein; not shown: N-terminal tag from the pET15b vector (N-tagged protein, enriched on Ni-NTA)
T1 sequence (P0A988 whole entry): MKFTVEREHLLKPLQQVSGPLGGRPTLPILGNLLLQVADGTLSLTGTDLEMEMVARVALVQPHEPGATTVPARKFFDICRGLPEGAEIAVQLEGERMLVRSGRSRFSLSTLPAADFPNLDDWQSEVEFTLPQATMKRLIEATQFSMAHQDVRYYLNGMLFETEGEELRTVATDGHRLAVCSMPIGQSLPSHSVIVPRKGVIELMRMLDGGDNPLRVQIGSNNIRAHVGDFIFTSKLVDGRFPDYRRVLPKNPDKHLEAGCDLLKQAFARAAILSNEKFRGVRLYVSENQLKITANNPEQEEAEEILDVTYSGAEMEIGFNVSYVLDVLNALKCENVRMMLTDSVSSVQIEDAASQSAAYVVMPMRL
Assay: ITC, peptide 400 µM into β ring 30 µM, 25° C
measure_name: Kd

Can you share its Kd? I mean this binder: H-RQLVLGL-OH (Used free in solution as challenger and immobilised on the SPR chip; the way of immobilisation is not described; also called natural Cter heptamer; natural heptapeptide) [P1, natural C-terminal heptapeptide of E. coli DNA polymerase IV (RQLVLGL)]
1000 to 2000 nM
